- System: Staph. aureus 01A400R
- test.method.notes: minimum inhibitory concentration (MIC), Staph. aureus 01A400R
- Type: cell-based
- protocol.conditions: Staphylococcus aureus; in vitro; Staph. aureus 01A400R, Gram-positive; read-out: MIC Values, Staph. aureus 01A400R
Measured MIC of individual entries
Your reply should be a number followed by the unit it is expressed in.

Example results:
compound	target.or.system	test.result
COC1CC(OC2C(C)C(=O)OC(C)C(C)C(OC(C)=O)C(C)C(=O)C3(CC3)CC(C)C(OC3OC(C)CC(N(C)C)C3OC(C)=O)C2C)OC(C)C1O (stereo not drawn) [Compound III Ac H Ac]	Staph. aureus 01A400R	3.12 µg/mL
C=C1CC(C)C(OC2OC(C)CC(N(C)C)C2OC(C)=O)C(C)C(OC2CC(OC)C(OC(C)=O)C(C)O2)C(C)C(=O)OC(C)C(C)C(OC(=O)C(F)(F)F)C(C)C1=O (stereo not drawn) [Compound II Ac Ac drawing 7]	Staph. aureus 01A400R	200 µg/mL

We next turn to a different compound, shown below.
For reference, reported MIC for C=C1CC(C)C(OC2OC(C)CC(N(C)C)C2O)C(C)C(OC2CC(OC)C(O)C(C)O2)C(C)C(=O)OC(C)C(C)C(O)C(C)C1=O (stereo not drawn) [Compound II H H H, 8,8a-Deoxy-8,8a-Methylene-Oleandomycin] stands at 25 µg/mL
